src = ChEMBL document CHEMBL3621045

# System: Klebsiella pneumoniae
# assayProcedure: Antibacterial activity against Klebsiella pneumoniae ATCC 700603
# Assay type: functional
quantityName: MIC (µg/mL)

# compound, qualifierSign, endpointResult
rows = [
    ("CN(CC(=O)O)NC(=O)C[C@H](N)C[C@@H](O)CNCC(F)CN (stereo partly specified)", "=", 128),
    ("CN(CC(=O)O)NC(=O)C[C@H](N)[C@H](O)[C@@H](O)CN", ">", 256),
    ("CCN(CC(=O)O)NC(=O)C[C@H](N)C[C@@H](O)CN", "=", 128),
    ("CN(CC(=O)O)NC(=O)C[C@H](N)C[C@@H](O)CN [NEGAMYCIN]", "=", 32),
    ("CN(CC(=O)O)NC(=O)C[C@H](N)C[C@H](F)CN", ">", 512),
    ("CN(CC(=O)O)NC(=O)C[C@@H](N)C[C@@H](O)CN", "=", 256),
    ("CN(CC(=O)O)NC(=O)C[C@H](N)C[C@@H](F)CN", "=", 64),
    ("CC(CCN)NC[C@H](O)C[C@@H](N)CC(=O)NN(C)CC(=O)O (stereo partly specified)", "=", 8),
    ("CN(CC(=O)O)NC(=O)C[C@H](N)C[C@@H](O)[C@@H](N)CO", ">", 128),
    ("CC(CN)CNC[C@H](O)C[C@@H](N)CC(=O)NN(C)CC(=O)O (stereo partly specified)", "=", 16),
    ("CN(CC(=O)O)NC(=O)C[C@H](N)C[C@@H](O)CNCCO", "=", 64),
]

----------
# System: Klebsiella pneumoniae
# assayProcedure: Antibacterial activity against Klebsiella pneumoniae ATCC 700603
# Type: functional
quantityName: MIC (µg/mL)

# compound, systemName, unitAbbreviation, qualifierSign, endpointResult
measured = [
    ("CC(=O)NCCCNC[C@H](O)C[C@@H](N)CC(=O)NN(C)CC(=O)O", "Klebsiella pneumoniae", "µg/mL", ">", 512),
    ("CN(CC(=O)O)NC(=O)C[C@H](N)C[C@@H](O)CNC[C@@H](O)CN", "Klebsiella pneumoniae", "µg/mL", "=", 64),
    ("CN(CC(=O)O)NC(=O)C[C@H](N)[C@@H](O)[C@@H](O)CN", "Klebsiella pneumoniae", "µg/mL", ">", 64),
    ("CN(CC(=O)O)NC(=O)C[C@H](N)C[C@@H](O)CNC[C@H](O)CN", "Klebsiella pneumoniae", "µg/mL", "=", 64),
    ("CN(CC(=O)O)NC(=O)C[C@@H](N)C[C@@H](O)CNCCCN", "Klebsiella pneumoniae", "µg/mL", "=", 64),
    ("CN(CC(=O)O)NC(=O)C[C@H](N)C[C@@H](O)CNCC1CCNC1 (stereo partly specified)", "Klebsiella pneumoniae", "µg/mL", "=", 128),
    ("CN(CC(=O)O)N(C)C(=O)C[C@H](N)C[C@@H](O)CN", "Klebsiella pneumoniae", "µg/mL", ">", 256),
    ("CN(CC(=O)O)NC(=O)C[C@H](N)C[C@H](O)CN", "Klebsiella pneumoniae", "µg/mL", "=", 1020),
    ("CN(CC(=O)O)NC(=O)C[C@H](N)C[C@@H](O)CNCC(N)CN (stereo partly specified)", "Klebsiella pneumoniae", "µg/mL", "=", 64),
    ("CN(CC(=O)O)NC(=O)C[C@H](N)C[C@@H](O)CNCCF", "Klebsiella pneumoniae", "µg/mL", "=", 64),
    ("NC[C@H](O)C[C@@H](N)CC(=O)NOCC(=O)O", "Klebsiella pneumoniae", "µg/mL", ">", 256),
    ("CN(CC(=O)O)NC(=O)C[C@H](N)C[C@@H](O)CNCCCNC(=N)N", "Klebsiella pneumoniae", "µg/mL", "=", 128),
    ("CN(C)[C@@H]1C(O)=C(C(N)=O)C(=O)[C@@]2(O)C(O)=C3C(=O)c4c(O)cccc4[C@@](C)(O)[C@H]3C[C@@H]12", "Klebsiella pneumoniae", "µg/mL", "=", 16),
    ("CN(CC(=O)O)NC(=O)C[C@H](N)C[C@@H](O)CNCCCCN", "Klebsiella pneumoniae", "µg/mL", "=", 16),
    ("CN(CC(=O)O)NC(=O)C[C@H](N)C[C@@H](O)CNCc1ccccc1", "Klebsiella pneumoniae", "µg/mL", "=", 128),
    ("CC(N)CCNC[C@H](O)C[C@@H](N)CC(=O)NN(C)CC(=O)O (stereo partly specified)", "Klebsiella pneumoniae", "µg/mL", "=", 64),
    ("CN(CC(=O)O)NC(=O)C[C@H](N)C[C@@H](O)CNCCC(N)=O", "Klebsiella pneumoniae", "µg/mL", ">", 256),
    ("CN(CC(=O)O)NC(=O)C[C@H](N)C[C@@H](O)CNCC1CNC1", "Klebsiella pneumoniae", "µg/mL", "=", 64),
    ("CN(CC(=O)O)NC(=O)C[C@H](N)C[C@@H](O)CNCCCN", "Klebsiella pneumoniae", "µg/mL", "=", 4),
    ("CN(CC(=O)O)NC(=O)C[C@@H](N)C[C@H](O)CN", "Klebsiella pneumoniae", "µg/mL", "=", 256),
    ("CN(CC(=O)O)NC(=O)C[C@H](N)C[C@@H](O)CNCc1ccccn1", "Klebsiella pneumoniae", "µg/mL", ">", 256),
]
